- studySystem: MAP1LC3B ATG8 (human)
- assayInfo: fluorescence polarisation; direct binding (saturation curve): 1:1 dilution series of the protein domain with 5 nM FITC-labelled peptide; room temperature; 50 mM sodium phosphate buffer pH 7.4; fitted to the quadratic equation
- setupConditions: both partners purified
pKd: −log10 of the molar value. No end group written: not given here.
assayMetric: pKd

                                     binder  assaymetric  endpointvalue
0  DDDWTHLSSK (also: FITC label, position not given here) [FITC-SQSTM1]          pKd           5.60
